Give IC50 for every item shown.
- Tested on: MRC5 human normal lung cells
- measurement_description: MTT cytostatic/cytotoxic assay
- Assay type: cell-based
- applied_conditions: MRC5, 48 h treatment, cytocidal/cytotoxic
- Description: The cell lines were obtained from the American Type of Culture collection (ATCC), except HuP-T3 which was kindly donated from University of Crete, School of Medicine, Greece, and were grown in different culture medium according to the instructions. For the determination of the cell viability, it was employed the MTT assay. Cells were plated in 96-well plate at a density of 1 × 10^4 cells/mL per well and maintained for 72 h at 37 °C in a 5% CO2 incubator and grown as monolayers. […]
I only need the number, in µM, no unit after it.

Incoming: Note IC50 for the compound shown: N.N.[Cl][Pt][Cl] [Cisplatin, reference compound]
Outgoing: 36

Incoming: Note down IC50 recorded for Cc1n[nH]c(=S)s1.[Cl][Ag].c1ccc(P(c2ccccc2)c2ccccc2)cc1.c1ccc(P(c2ccccc2)c2ccccc2)cc1 [Compound 1, [AgCl(mtdztH)(PPh3)2]]
Outgoing: 9.2

Incoming: Please give measured IC50 of the following entry: Cc1nnc([S][Ag])s1.c1ccc(P(c2ccccc2)c2ccccc2)cc1.c1ccc(P(c2ccccc2)c2ccccc2)cc1.c1ccc(P(c2ccccc2)c2ccccc2)cc1 [Compound 2, [Ag(mtdzt)(PPh3)3]]
Outgoing: 4.1
